Answer each item with its documented inhibition.
- study.target: UniProt Q96KQ7
- assay.notes: Inhibition of wild type recombinant human histone lysine methyltransferase G9a (913 to 1193 residues) expressed in Escherichia coli Rosetta BL21 DE3 PlysS at 100 uM using ARTKQTARKSTGGKA as substrate preincubated for 5 mins followed by substrate/SAM addition measured after 60 mins by MALDI-TOF MS analysis

[[record]]
compound = "CCN(CC)C(=S)S [DITIOCARB SODIUM]"
endpoint_result = "> 50%"


Please look at the items below and tell me inhibition for each one, in order.
1. O=C1c2ccccc2C(=O)N1[Se]c1ccccc1
2. O=[Se](O)c1ccccc1
3. O=[Se](=O)(O)O [SODIUM SELENATE]
4. O=C1C=CC(=O)c2ccccc21
5. O=C1c2ccccc2C(=O)c2ccccc21

[reply]
1. > 50%
2. > 50%
3. 10%
4. > 50%
5. 20%

----------
Answer each item with its documented pIC50.
- study.target: Histone-lysine N-methyltransferase EHMT2 (Homo sapiens)
- assay.notes: Inhibition of wild type recombinant human histone lysine methyltransferase G9a (913 to 1193 residues) expressed in Escherichia coli Rosetta BL21 DE3 PlysS using ARTKQTARKSTGGKA as substrate preincubated for 5 mins followed by substrate/SAM addition measured after 60 mins by MALDI-TOF MS analysis
Structures can show the parent of a compound that is named as a salt.
Answers are plain numbers, as −log10 of the molar value.

Check out these entries, answers already filled in.
[[record]]
molecule = "O=C1c2ccccc2C(=O)N1[Se]c1ccccc1"
study_target = "Histone-lysine N-methyltransferase EHMT2 (Homo sapiens)"
endpoint_result = 6.35

[[record]]
molecule = "CCN(CC)C(=S)S [DITIOCARB SODIUM]"
study_target = "Histone-lysine N-methyltransferase EHMT2 (Homo sapiens)"
endpoint_result = 5.04

[[record]]
molecule = "c1ccc([Se][Se]c2ccccc2)cc1"
study_target = "Histone-lysine N-methyltransferase EHMT2 (Homo sapiens)"
endpoint_result = 6.26

[[record]]
molecule = "Cl[Se]c1ccccc1"
study_target = "Histone-lysine N-methyltransferase EHMT2 (Homo sapiens)"
endpoint_result = 5.92


Please look at the items below and tell me pIC50 for each one, in order.
1. c1ccc(SSc2ccccn2)nc1
2. O=C1c2ccccc2C(=O)C1(O)O
3. Br[Se]c1ccccc1
4. O=c1c2ccccc2[se]n1-c1ccccc1 [EBSELEN]
5. O=C1C=CC(=O)c2ccccc21 [NAPHTHOQUINONE]
6. NC(=O)/N=N/C(N)=O [E927A]
7. CN(C)C(=S)SSC(=S)N(C)C [THIRAM]
8. NCCSSCCN [CYSTAMINE DIHYDROCHLORIDE]

[reply]
1: 6.19; 2: 4.27; 3: 6.10; 4: 6.40; 5: 5.70; 6: 6.30; 7: 6.26; 8: 4.82

[ask] I am curious: what pIC50 value has been reported for O=[Se](O)c1ccccc1 [BENZENE SELENOIC ACID] ?
[reply] 5.36

----------
- study.target: Histone-lysine N-methyltransferase EHMT1 (Homo sapiens, UniProt Q9H9B1)
- Sequence (Q9H9B1 whole entry, the tested form may be a part): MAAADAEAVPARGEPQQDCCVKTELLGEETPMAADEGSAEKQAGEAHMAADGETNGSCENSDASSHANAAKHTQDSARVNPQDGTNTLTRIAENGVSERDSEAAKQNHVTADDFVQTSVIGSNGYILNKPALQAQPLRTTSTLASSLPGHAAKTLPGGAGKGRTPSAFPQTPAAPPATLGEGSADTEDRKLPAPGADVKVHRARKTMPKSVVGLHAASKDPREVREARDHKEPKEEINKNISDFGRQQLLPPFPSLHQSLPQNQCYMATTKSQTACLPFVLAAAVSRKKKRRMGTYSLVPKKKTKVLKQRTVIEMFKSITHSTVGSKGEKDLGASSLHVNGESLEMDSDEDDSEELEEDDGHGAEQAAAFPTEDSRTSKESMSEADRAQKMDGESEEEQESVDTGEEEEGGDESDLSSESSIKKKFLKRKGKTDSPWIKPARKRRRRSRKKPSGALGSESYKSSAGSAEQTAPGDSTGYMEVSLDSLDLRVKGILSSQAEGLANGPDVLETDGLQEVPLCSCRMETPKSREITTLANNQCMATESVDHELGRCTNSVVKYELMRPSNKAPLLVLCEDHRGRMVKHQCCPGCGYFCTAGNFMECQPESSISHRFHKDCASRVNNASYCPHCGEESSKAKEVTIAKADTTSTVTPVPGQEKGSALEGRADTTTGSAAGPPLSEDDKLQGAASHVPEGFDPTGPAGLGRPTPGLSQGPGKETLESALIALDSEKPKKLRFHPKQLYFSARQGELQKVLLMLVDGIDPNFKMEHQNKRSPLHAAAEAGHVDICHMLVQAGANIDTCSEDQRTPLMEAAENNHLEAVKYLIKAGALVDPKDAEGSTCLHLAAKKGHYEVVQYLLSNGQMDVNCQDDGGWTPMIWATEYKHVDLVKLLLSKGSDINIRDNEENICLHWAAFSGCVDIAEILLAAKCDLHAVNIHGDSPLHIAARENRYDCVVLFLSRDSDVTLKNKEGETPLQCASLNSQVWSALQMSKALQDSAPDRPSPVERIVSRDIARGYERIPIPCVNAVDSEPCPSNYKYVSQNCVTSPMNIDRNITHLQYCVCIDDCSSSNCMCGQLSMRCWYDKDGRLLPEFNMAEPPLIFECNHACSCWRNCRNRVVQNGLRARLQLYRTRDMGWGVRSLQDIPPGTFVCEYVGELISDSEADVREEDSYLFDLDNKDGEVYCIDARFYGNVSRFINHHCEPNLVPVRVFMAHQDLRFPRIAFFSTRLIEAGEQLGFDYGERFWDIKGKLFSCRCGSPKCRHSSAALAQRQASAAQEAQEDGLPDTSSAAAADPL
- assay.notes: Inhibition of wild type recombinant human histone lysine methyltransferase GLP (951 to 1235 residues) expressed in Escherichia coli Rosetta BL21 DE3 PlysS using ARTKQTARKSTGGKA as substrate preincubated for 5 mins followed by substrate/SAM addition measured after 60 mins by MALDI-TOF MS analysis
assay.endpoint: pIC50
One number for each entry, as −log10 of the molar value.

Check out these entries, answers already filled in.
[[record]]
compound = "O=c1c2ccccc2[se]n1-c1ccccc1"
study_target = "Histone-lysine N-methyltransferase EHMT1 (Homo sapiens, UniProt Q9H9B1)"
assay_endpoint = "pIC50"
endpoint_result = 6.14

[[record]]
compound = "CCN(CC)C(=S)S [DITIOCARB SODIUM]"
study_target = "Histone-lysine N-methyltransferase EHMT1 (Homo sapiens, UniProt Q9H9B1)"
assay_endpoint = "pIC50"
endpoint_result = 4.09

[[record]]
compound = "O=C1C=CC(=O)c2ccccc21"
study_target = "Histone-lysine N-methyltransferase EHMT1 (Homo sapiens, UniProt Q9H9B1)"
assay_endpoint = "pIC50"
endpoint_result = 4.85


Please look at the items below and tell me pIC50 for each one, in order.
1. c1ccc([Se][Se]c2ccccc2)cc1
2. c1ccc(SSc2ccccn2)nc1
3. NC(=O)/N=N/C(N)=O [E927A]
4. O=C1c2ccccc2C(=O)N1[Se]c1ccccc1
5. O=[Se](O)c1ccccc1
6. CCN(CC)C(=S)SSC(=S)N(CC)CC

[reply]
1. 6.07
2. 5.57
3. 5.77
4. 6.00
5. 5.31
6. 5.80

Please look at the items below and tell me pIC50 for each one, in order.
1. Cl[Se]c1ccccc1
2. Br[Se]c1ccccc1
3. CN(C)C(=S)SSC(=S)N(C)C

[reply]
5.96
5.82
5.96

----------
- study.target: Histone-lysine N-methyltransferase EHMT2 (Homo sapiens)
- assay.notes: Inhibition of wild type recombinant human histone lysine methyltransferase G9a (913 to 1193 residues) expressed in Escherichia coli Rosetta BL21 DE3 PlysS at 100 uM using ARTKQTARKSTGGKA as substrate preincubated for 5 mins followed by substrate/SAM addition measured after 60 mins by MALDI-TOF MS analysis
assay.endpoint: inhibition

Check out these entries, answers already filled in.
[[record]]
compound = "Cl[Se]c1ccccc1"
endpoint_result = "> 50%"

[[record]]
compound = "NC(=O)/N=N/C(N)=O [E927A]"
endpoint_result = "> 50%"

[[record]]
compound = "c1ccc(SSc2ccccn2)nc1"
endpoint_result = "> 50%"


Please look at the items below and tell me inhibition for each one, in order.
1. CCN(CC)C(=S)SSC(=S)N(CC)CC
2. CN(C)C(=S)SSC(=S)N(C)C
3. Br[Se]c1ccccc1
4. c1ccc([Se][Se]c2ccccc2)cc1

[reply]
1: > 50%; 2: > 50%; 3: > 50%; 4: > 50%

[ask] Write down the reported inhibition of `O=c1c2ccccc2[se]n1-c1ccccc1` , test system: Histone-lysine N-methyltransferase EHMT2 (Homo sapiens).
[reply] > 50%

----------
Answer each item with its documented inhibition.
- study.target: Histone-lysine N-methyltransferase EHMT1 (Homo sapiens) (UniProt Q9H9B1)
- Sequence (Q9H9B1 whole entry, the tested form may be a part): as above
- assay.notes: Inhibition of wild type recombinant human histone lysine methyltransferase GLP (951 to 1235 residues) expressed in Escherichia coli Rosetta BL21 DE3 PlysS at 100 uM using ARTKQTARKSTGGKA as substrate preincubated for 5 mins followed by substrate/SAM addition measured after 60 mins by MALDI-TOF MS analysis

Check out these entries, answers already filled in.
[[record]]
compound = "O=C1c2ccccc2C(=O)N1[Se]c1ccccc1"
assay_endpoint = "inhibition"
endpoint_result = "> 50%"

[[record]]
compound = "O=[Se](O)c1ccccc1"
assay_endpoint = "inhibition"
endpoint_result = "> 50%"

[[record]]
compound = "Cl[Se]c1ccccc1"
assay_endpoint = "inhibition"
endpoint_result = "> 50%"


Please look at the items below and tell me inhibition for each one, in order.
1. O=C1C=CC(=O)c2ccccc21
2. CCN(CC)C(=S)S [DITIOCARB SODIUM]

[reply]
1: > 50%; 2: > 50%

Please look at the items below and tell me inhibition for each one, in order.
1. Br[Se]c1ccccc1
2. O=c1c2ccccc2[se]n1-c1ccccc1

[reply]
1: > 50%; 2: > 50%

----------
- study.target: Histone-lysine N-methyltransferase EHMT2 (Homo sapiens)
- Sequence (whole entry): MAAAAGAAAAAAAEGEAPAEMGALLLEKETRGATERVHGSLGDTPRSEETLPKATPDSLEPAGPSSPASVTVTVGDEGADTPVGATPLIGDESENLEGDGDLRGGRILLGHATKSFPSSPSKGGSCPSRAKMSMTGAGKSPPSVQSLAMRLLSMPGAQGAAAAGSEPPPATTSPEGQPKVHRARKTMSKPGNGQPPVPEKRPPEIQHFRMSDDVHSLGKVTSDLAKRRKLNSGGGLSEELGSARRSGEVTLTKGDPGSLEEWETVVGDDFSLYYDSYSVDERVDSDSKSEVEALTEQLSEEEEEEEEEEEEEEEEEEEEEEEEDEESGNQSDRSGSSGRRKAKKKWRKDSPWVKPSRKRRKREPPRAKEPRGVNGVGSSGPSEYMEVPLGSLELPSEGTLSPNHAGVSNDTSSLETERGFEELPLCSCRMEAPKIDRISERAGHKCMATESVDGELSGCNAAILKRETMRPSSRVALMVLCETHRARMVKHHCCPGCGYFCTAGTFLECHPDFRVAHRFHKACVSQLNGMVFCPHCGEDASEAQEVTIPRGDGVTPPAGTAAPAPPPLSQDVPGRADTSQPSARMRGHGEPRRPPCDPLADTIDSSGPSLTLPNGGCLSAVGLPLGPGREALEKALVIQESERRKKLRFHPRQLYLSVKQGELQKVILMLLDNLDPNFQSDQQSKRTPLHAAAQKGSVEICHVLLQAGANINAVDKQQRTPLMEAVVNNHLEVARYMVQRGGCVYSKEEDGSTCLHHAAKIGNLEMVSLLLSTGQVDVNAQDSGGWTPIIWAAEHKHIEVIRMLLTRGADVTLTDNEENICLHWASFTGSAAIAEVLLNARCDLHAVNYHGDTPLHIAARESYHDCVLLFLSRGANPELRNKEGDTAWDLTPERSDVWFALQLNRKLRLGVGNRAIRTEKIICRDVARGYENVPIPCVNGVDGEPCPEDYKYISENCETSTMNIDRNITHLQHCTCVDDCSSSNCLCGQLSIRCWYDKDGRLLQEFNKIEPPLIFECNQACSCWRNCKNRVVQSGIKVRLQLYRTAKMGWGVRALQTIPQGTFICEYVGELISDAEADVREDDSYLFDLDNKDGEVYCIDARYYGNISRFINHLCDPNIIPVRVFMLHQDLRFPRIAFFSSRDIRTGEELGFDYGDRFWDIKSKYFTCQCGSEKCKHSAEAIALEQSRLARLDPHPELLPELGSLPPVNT
- assay.notes: Inhibition of wild type recombinant human histone lysine methyltransferase G9a (913 to 1193 residues) expressed in Escherichia coli Rosetta BL21 DE3 PlysS assessed as zinc ions ejection from Cys4-Zn finger at 100 uM by FluoZin-3 based fluorescence assay
Structures can show the parent of a compound that is named as a salt. Calls of active or inactive are those of the source. The calls are words filed in the database; no cut-off is given here.
assay.endpoint: inhibition

Check out these entries, answers already filled in.
[[record]]
compound = "CCN(CC)C(=S)SSC(=S)N(CC)CC"
endpoint_result = "Active"

[[record]]
compound = "Br[Se]c1ccccc1"
endpoint_result = "Active"

[[record]]
compound = "NCCSSCCN [CYSTAMINE DIHYDROCHLORIDE]"
endpoint_result = "Active"

[[record]]
compound = "N[C@@H](CCC(=O)N[C@@H](CS)C(=O)NCC(=O)O)C(=O)O"
endpoint_result = "Active"

[[record]]
compound = "O=C1c2ccccc2C(=O)c2ccccc21"
endpoint_result = "Active"


Please look at the items below and tell me inhibition for each one, in order.
1. O=c1c2ccccc2[se]n1-c1ccccc1
2. C[S+](C)[O-]

[reply]
["Active", "Active"]
